Measured Kd of individual entries
Target: T1, EsCas13d, nuclease-dead (Eubacterium siraeum, UniProt B0MS50, R295A;H300A;R849A;H854A)
T1 sequence: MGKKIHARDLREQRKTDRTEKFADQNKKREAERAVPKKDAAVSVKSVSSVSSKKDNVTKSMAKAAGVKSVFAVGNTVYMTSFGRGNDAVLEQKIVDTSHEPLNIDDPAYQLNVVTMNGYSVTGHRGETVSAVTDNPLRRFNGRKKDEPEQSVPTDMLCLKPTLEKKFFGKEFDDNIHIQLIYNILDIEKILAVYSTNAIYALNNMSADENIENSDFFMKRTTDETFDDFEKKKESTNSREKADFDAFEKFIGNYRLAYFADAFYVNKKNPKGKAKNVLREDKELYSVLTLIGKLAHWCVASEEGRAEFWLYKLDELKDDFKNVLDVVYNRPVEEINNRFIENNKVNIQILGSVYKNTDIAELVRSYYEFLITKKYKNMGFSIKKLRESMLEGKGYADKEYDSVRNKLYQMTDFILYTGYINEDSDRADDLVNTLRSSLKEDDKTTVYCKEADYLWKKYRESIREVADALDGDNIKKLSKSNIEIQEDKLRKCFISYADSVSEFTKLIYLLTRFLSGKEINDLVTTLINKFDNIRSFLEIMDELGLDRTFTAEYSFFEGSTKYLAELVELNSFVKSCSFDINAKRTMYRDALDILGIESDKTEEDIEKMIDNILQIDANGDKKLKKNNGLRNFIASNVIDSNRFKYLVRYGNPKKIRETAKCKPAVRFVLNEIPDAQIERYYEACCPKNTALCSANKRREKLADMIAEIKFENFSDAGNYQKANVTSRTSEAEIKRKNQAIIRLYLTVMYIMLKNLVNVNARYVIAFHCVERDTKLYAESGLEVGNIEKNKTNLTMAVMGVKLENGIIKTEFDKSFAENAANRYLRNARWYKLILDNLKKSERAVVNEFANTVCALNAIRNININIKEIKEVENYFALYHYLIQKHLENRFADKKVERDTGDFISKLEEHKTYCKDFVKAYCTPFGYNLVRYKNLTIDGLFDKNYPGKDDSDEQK
Test: crRNA (strand 1, pre-loaded); Mg2+; 40 mM Tris-HCl pH 7.5, 150 mM NaCl, 6 mM MgCl2, 1 mM DTT, 0.1% Tween-20, 0.2 mg/ml BSA; 25 C; 10 min per concentration, then washed
Settings: tags: His6-TwinStrep-SUMO cleaved; N-terminal SNAP kept (SNAP-Surface 488); label: 3' end held by stalled T7 RNA polymerase
Respond with the bare value in nM.

Example cases with answers are listed next.
{"binder": "target 1 insC 3' of 14,insA 3' of 12 (mixed) RNA 1: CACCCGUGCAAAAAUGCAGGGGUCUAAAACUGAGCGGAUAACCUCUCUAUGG RNA 2: GGGAAUGGAUCCACAUCUACGAAUUCGUACCAUAGAGACGGAUUAUCCGCUCACCGAGAUCGGAAGAGCACACGU", "measured parameter": "Kd", "readout number": 70}
{"binder": "target 2 MT 5'PFS CGG 3'PFS UAU (mixed) RNA 1: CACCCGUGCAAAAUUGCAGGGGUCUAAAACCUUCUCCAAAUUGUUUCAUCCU RNA 2: GGGAAUGGAUCCACAUCUACGAAUUCCGGAGGAUGAAACAAUUUGGAGAAGUAUAGAUCGGAAGAGCACACGU", "measured parameter": "Kd", "readout number": 5}
{"binder": "target 1 complement block 1-8 (mixed) RNA 1: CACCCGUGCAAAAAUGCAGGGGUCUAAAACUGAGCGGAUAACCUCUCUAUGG RNA 2: GGGAAUGGAUCCACAUCUACGAAUUCGUACCAUAGAGAGGUUAAGGCGAGUCCGAGAUCGGAAGAGCACACGU", "measured parameter": "Kd", "readout number": 11.4}

Now take the following binder into account.
Per the record, target 1 MT 5'PFS GCA 3'PFS UUU (mixed) RNA 1: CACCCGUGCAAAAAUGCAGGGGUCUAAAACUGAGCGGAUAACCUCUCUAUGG RNA 2: GGGAAUGGAUCCACAUCUACGAAUUCGCACCAUAGAGAGGUUAUCCGCUCAUUUAGAUCGGAAGAGCACACGU has Kd of 11
